ASSAYED_SYSTEM: Thyrotropin-releasing hormone receptor (Homo sapiens) (UniProt P34981)
Sequence (P34981 whole entry, looked up): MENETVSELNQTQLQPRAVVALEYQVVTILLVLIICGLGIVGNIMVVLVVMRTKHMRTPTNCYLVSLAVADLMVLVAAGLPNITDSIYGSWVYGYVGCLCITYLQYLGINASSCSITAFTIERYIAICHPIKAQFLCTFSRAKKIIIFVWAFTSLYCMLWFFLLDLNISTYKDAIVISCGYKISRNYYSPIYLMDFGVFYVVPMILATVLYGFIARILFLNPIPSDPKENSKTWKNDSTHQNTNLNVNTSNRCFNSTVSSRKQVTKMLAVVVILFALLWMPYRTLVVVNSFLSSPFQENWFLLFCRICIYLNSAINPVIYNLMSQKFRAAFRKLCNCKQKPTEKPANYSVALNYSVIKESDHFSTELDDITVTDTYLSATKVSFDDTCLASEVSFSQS
PROCEDURE_DETAILS: qHTS assay to identify small molecule agonists of the thyrotropin-releasing hormone receptor (TRHR) signaling pathway (AID 1346891);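 further: HEK293 cells expressing TRHR with calcium dye readout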
COND: TRHR-HEK293 calcium fluorescence, agonist mode; series mostly up to 57.6 µM
Active and inactive are the calls of the source. The call rests on the fitted dose curve.

{"MOLECULE": "CCCCCCc1ccc(O)cc1O", "outcome": "inactive"}
{"MOLECULE": "Cc1ncc([N+](=O)[O-])n1C", "outcome": "inactive"}
{"MOLECULE": "CN(C)CCOC(c1ccccc1)c1ccccc1", "outcome": "inactive"}
{"MOLECULE": "O=C1NC(=O)C(c2ccccc2)(c2ccccc2)N1", "outcome": "inactive"}
